# Species on record: Rattus norvegicus
# PROTOCOL TEXT: DrugMatrix - Regimen: Daily Repeat
# Type: toxicity, organism-based, Sprague-Dawley
# Design: regimen Daily Repeat, gender Male, age 6-8 weeks
# PROTOCOL CONDITIONS: in vivo, po, 0 mg/kg, 120 h, tissue Plasma, route oral GAVAGE, dose level Control, time 5 day, vehicle .5 % CMC
PROPERTY LABEL: CHOLESTEROL
# include the unit after the value

> print(dat)
                         compound.structure  property.label  reported.measurement
1              CN/C(=N/CCSCc1nc[nH]c1C)NC#N     CHOLESTEROL           71.33 mg/dL
2  C[C@H]1O[C@@H](n2cc(F)c(=O)[nH]c2=O)[C@H](O)[C@@H]1O     CHOLESTEROL           71.33 mg/dL

Request: Given `CCN(CC)CCOc1ccc(/C(=C(/Cl)c2ccccc2)c2ccccc2)cc1` , state its recorded CHOLESTEROL.
Result: 71.33 mg/dL

Value source: ChEMBL document CHEMBL3885881
